SYSTEM: human GcgR (Homo sapiens)
Sequence (P47871 26-477): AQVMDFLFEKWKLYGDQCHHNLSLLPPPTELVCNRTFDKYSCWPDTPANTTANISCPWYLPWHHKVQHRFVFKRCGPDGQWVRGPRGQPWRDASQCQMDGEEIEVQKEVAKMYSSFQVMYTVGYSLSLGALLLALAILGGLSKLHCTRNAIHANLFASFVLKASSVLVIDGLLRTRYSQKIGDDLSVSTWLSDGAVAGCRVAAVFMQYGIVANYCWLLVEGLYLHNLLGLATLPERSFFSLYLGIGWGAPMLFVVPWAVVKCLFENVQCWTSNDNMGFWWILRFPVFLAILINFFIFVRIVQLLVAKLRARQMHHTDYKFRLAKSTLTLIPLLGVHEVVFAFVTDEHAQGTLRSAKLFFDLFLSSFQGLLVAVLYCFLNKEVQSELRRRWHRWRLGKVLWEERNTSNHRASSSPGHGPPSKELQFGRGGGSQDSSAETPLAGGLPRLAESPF
PROCEDURE DETAILS: Functional cAMP activity in the presence of 1% HSA
Type: cell-based
CONDITION PARAMETERS: read-out: cAMP Rel EC50, hGcgR
Starred links: 1 amine or outer side, 2 acyl side, 3 side chain; linkers in the order of their positions; H or OH if unused. Non-standard residues stand in square brackets, D forms with d. Groups on a side chain read outwards from the residue. *: point of attachment. C18 diacid = O=C(O)CCCCCCCCCCCCCCCCC(=O)*; αMePhe(2-F) = C[C@](N)(Cc1ccccc1F)C(=O)O; γGlu = O=C(O)[C@H](CCC(=O)[*:2])N[*:1]; αMe4Pal = C[C@](N)(Cc1ccncc1)C(=O)O; αMeY = C[C@](N)(Cc1ccc(O)cc1)C(=O)O; 4Pal = N[C@@H](Cc1ccncc1)C(=O)O; αMeL = CC(C)C[C@](C)(N)C(=O)O; αMeS = C[C@](N)(CO)C(=O)O; Orn = NCCC[C@H](N)C(=O)O; Aib = CC(C)(N)C(=O)O
EXPERIMENTAL ENDPOINT: EC50 (nM)
Express your answer in nM, writing the number without its unit.

Challenge: May I ask what EC50 has been recorded for H-Y[Aib]QGTFTSD[4Pal]SR[αMeL]LDKK([γGlu-γGlu-C18 diacid])AQ[αMe4Pal]AFIEYLIAGGPSSGAPPPSGSEE-NH2 [Example 962] ?
Response given: 485

Challenge: May I ask what EC50 has been recorded for H-Y[Aib]QGT[αMePhe(2-F)]TSD[4Pal][αMeS]I[αMeL]LD[Orn]K([γGlu-γGlu-C18 diacid])AQ[Aib]NFI[dE][αMeY]LQEGGPSSGEPPPEGT-NH2 [Example 525] ?
Response given: 460

Challenge: May I ask what EC50 has been recorded for H-Y[Aib]QGT[αMePhe(2-F)]TSD[4Pal][αMeS]I[αMeL]LD[Orn]K([γGlu-γGlu-C18 diacid])AQ[Aib][Orn]FI[dE]YLIEGGPSSGEPPPSGTGE-NH2 [Example 523] ?
Response given: 234

Where do these numbers come from? They come from patent US20240270821A1.
